Assay System: full length AKT E17K (Homo sapiens, UniProt P31749, E17K)
Construct: host or cells: HEK-293 (ATCC CRL-1573)
Sequence (P31749 whole entry E17K): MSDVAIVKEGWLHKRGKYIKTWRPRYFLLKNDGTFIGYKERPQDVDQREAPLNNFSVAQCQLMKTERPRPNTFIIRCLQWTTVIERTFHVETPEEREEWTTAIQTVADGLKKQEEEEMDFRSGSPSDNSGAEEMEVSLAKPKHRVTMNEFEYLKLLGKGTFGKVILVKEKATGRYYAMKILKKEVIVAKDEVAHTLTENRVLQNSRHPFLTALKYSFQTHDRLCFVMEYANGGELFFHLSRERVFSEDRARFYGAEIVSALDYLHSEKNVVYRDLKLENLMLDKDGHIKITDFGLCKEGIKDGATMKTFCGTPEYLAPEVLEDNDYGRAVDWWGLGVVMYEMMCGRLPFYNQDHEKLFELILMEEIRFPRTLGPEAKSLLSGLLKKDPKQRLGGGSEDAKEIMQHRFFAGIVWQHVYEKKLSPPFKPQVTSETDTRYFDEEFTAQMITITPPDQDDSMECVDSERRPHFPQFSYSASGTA
Method Description: NanoBRET Target Engagement (TE) Assay
Assay type: cell-based
Measurement Context: competitive displacement of tracer in cells, read-out: AKT1 E17K IC50
Experimental: The NanoBRET™ Target Engagement (TE) Intracellular Kinase Assays are based on the NanoBRET™ System (Promega Corporation), an energy transfer technique designed to measure molecular proximity in living cells. […] All cells were evaluated for viability prior to transfection and optimization of the transfection was done prior to experimentation. […] Milli-BRET units (mBU) are calculated by multiplying the raw BRET values by 1000. […]
Reported IC50 values for the following compounds.

CN1CCN(c2ccc3nc(-c4cccnc4N)n(-c4ccc(CN5CCC(Nc6ccnc(C#N)n6)CC5)cc4)c3n2)CCC1=O [Example 346] = 60 to 600 nM

In: State, in one line, measured IC50 of N#Cc1nccc(NC2CCN(Cc3ccc(-n4c(-c5cccnc5N)nc5ccc(-c6ccc(F)cc6F)nc54)cc3)CC2)n1 [Example 475]
Out: < 15 nM

In: Find the measured IC50 of Cn1cnc(-c2ccc3nc(-c4cccnc4N)n(-c4ccc(CN5CCC(Nc6ccnc(C#N)n6)CC5)cc4)c3n2)n1 [Example 559] and report it.
Out: 15 to 60 nM

In: Find the measured IC50 of N#Cc1nccc(NC2CCN(Cc3ccc(-n4c(-c5cccnc5N)nc5ccc(-c6ccc(OC(F)F)cn6)nc54)cc3)CC2)n1 [Example 579] and report it.
Out: < 15 nM

In: Determine its reported IC50: N#Cc1nccc(NC2CCN(Cc3ccc(-n4c(-c5cccnc5N)nc5ccc(-c6ccc(C(F)F)nc6)nc54)cc3)CC2)n1 [Example 645]
Out: < 15 nM

In: Give the measured IC50 for N#Cc1cccc(-c2ccc3nc(-c4cccnc4N)n(-c4ccc(CN5CCC(Nc6ccnc(C#N)n6)CC5)cc4)c3n2)n1 [Example 428]
Out: 15 to 60 nM

In: Give a short answer stating reported IC50 for N#Cc1nccc(N2CCN(Cc3ccc(-n4c(-c5cccnc5N)nc5ccc(-c6cnccc6C#N)nc54)cc3)CC2)n1 [Example 383] .
Out: < 15 nM

---

Assay System: full length AKT E17K (Homo sapiens, UniProt P31749, E17K)
Construct: host or cells: HEK-293 (ATCC CRL-1573)
Method Description: NanoBRET Target Engagement (TE) Assay
Assay type: cell-based
Measurement Context: competitive displacement of tracer in cells, read-out: AKT1 E17K IC50
pIC50: −log10 of the molar value.
Entries and their pIC50

Observe how each entry below is paired with its result.
N#Cc1nccc(N2CC3CCC(C2)N3Cc2ccc(-n3c(-c4cccnc4N)nc4ccc(-c5ccc(F)cc5)nc43)cc2)n1 = 7.22 to 7.82
N#Cc1nccc(NC2CCN(Cc3ccc(-n4c(-c5cccnc5N)nc5ccc(-c6cscn6)nc54)cc3)CC2)n1 = > 7.82
CCn1cc(-c2ccc3nc(-c4cccnc4N)n(-c4ccc(CN5CCC(Nc6ccnc(C#N)n6)CC5)cc4)c3n2)nn1 = > 7.82
Cc1cncc(-c2ccc3nc(-c4cccnc4N)n(-c4ccc(CN5CCC(Nc6ccnc(C#N)n6)CC5)cc4)c3n2)c1 = > 7.82
N#Cc1nccc(NC2CCN(Cc3ccc(-n4c(-c5cncnc5)nc5ccc(-c6ccc(F)cn6)nc54)cc3)CC2)n1 = 5.00 to 6.22

In: Assign pIC50 to the following record: CC(C)Oc1ccc(-c2ccc3nc(-c4cccnc4N)n(-c4ccc(CN5CCC(Nc6ccnc(C#N)n6)CC5)cc4)c3n2)nc1
Out: > 7.82

In: Consider the molecule Cn1cc(-c2ccc3nc(-c4cccnc4N)n(-c4ccc(CN5CCC(Nc6ccnc(C#N)n6)CC5)cc4)c3n2)nn1 . State its measured pIC50.
Out: > 7.82

In: Report pIC50, nothing else, for this molecule: COc1cccc(-c2ccc3nc(-c4cccnc4N)n(-c4ccc(CN5CCC(Nc6ccnc(C#N)n6)CC5)cc4)c3n2)n1
Out: > 7.82

In: Give recorded pIC50. [2H]C([2H])([2H])N(c1ccc2nc(-c3cccnc3N)n(-c3ccc(CN4CCC(Nc5ccnc(C#N)n5)CC4)cc3)c2n1)C([2H])([2H])[2H]
Out: > 7.82

In: Recall and state the measured pIC50 for [2H]C([2H])(F)Oc1ccc(-c2ccc3nc(-c4cccnc4N)n(-c4ccc(CN5CCC(Nc6ccnc(C#N)n6)CC5)cc4)c3n2)cn1 .
Out: > 7.82

In: Tell me pIC50 reported for N#Cc1nccc(NC2CCN(Cc3ccc(-n4c(-c5cccnc5N)nc5c(O)ncnc54)cc3)CC2)n1
Out: 5.00 to 6.22

In: For the molecule [2H]C([2H])([2H])c1nn(C)nc1-c1ccc2nc(-c3cccnc3N)n(-c3ccc(CN4CCC(Nc5ccnc(C#N)n5)CC4)cc3)c2n1 , report pIC50.
Out: > 7.82

In: Give the value of pIC50 reported for the following: C[C@@H]1CN(Cc2ccc(-n3c(-c4cccnc4N)nc4ccc(-c5ccccc5)nc43)cc2)C[C@H](C)N1c1nccc(C#N)n1
Out: 5.00 to 6.22
